- assayed-target: hFASN enzyme (full length) (Homo sapiens)
- Construct: 10 μL hFASN enzyme (full length, 300 ng, purified in house); made in house
- measurement-description: Fatty Acid Synthase (FASN) inhibition scintillation proximity assay
- Format: biochemical
- condition-context: read-out: Human FASN pIC50 (converted)
experimental-endpoint: IC50 (nM)

- Cc1cc(-c2ccc3oc(C)c(C)c3c2)ccc1C1=NC2(CC2)C(=O)N1C[C@@H]1CCN(C(=O)C2CC2)C1: 87.1
- Cn1nc(Cl)c2cc(-c3ccc(C4=NC5(CC5)C(=O)N4CC4CN(C(=O)C5CC5)C4)c(F)c3)ccc21: 158
- Cc1cc(-c2cccc3[nH]ncc23)ccc1C1=NC2(CC2)C(=O)N1C[C@@H]1CCN(C(=O)C2CC2)C1: 50.1
- O=CNc1cc(-c2ccc(C3=NC4(CC4)C(=O)N3CC3CN(C(=O)C4CC4)C3)cc2)ccc1O: 4680
- CC(O)C(=O)N1CC(CN2C(=O)C3(CCOCC3)N=C2c2ccc(-c3ccc(-c4cnn(C)c4)cc3)cc2)C1 (stereo not drawn): 5890

P = O=C(C1CC1)N1CC[C@H](CN2C(=O)C3(CC3)N=C2c2ccc(-c3ccc(-c4cccc(Cl)c4)cc3)cc2)C1
Q = COc1cc(-c2ccc3occc3c2)ccc1C1=NC2(CCCC2)C(=O)N1C[C@@H]1CCN(C(=O)C2CC2)C1
R = O=C(C1CC1)N1CC(CN2C(=O)C3(CC3)N=C2c2ccc(-c3ccc4cc[nH]c4c3)cc2)C1
S = O=C(O)c1ccc2ccc(-c3ccc(C4=NC5(CC5)C(=O)N4CC4CN(C(=O)C5CC5)C4)cc3)cc2n1
Endpoint returns the given compounds ordered by ascending IC50. Reply format: the labels, ordered as requested.
R, Q, P, S
(R: 22.9 nM, Q: 191 nM, P: 324 nM, S: 3980 nM)

* * *

- assayed-target: hFASN enzyme (full length) (Homo sapiens)
- Construct: 10 μL hFASN enzyme (full length, 300 ng, purified in house); made in house
- measurement-description: Fatty Acid Synthase (FASN) inhibition scintillation proximity assay
- Type: biochemical
- condition-context: read-out: Human FASN % inhibition @ 10 μM, 10 μM test compound
experimental-endpoint: inhibition at 10 µM (%)

- O=C(C1CC1)N1CCC(CN2C(=O)C3(CCCC3)N=C2c2ccc(-c3ccc4occc4c3)cc2)CC1: 92.7
- CC(O)C(=O)N1CC[C@@H](CN2C(=O)C3(CCOCC3)N=C2c2ccc(-c3ccc(-c4cnn(C)c4)cc3)cc2)C1 (some centres unmarked): 74
- O=C([C@@H]1CCCO1)N1CC[C@@H](CN2C(=O)C3(CCCC3)N=C2c2ccc(-c3ccc4occc4c3)cc2)C1: 105
- O=C(C1CC1)N1CC[C@@H](CN2C(=O)C3(CCCC3)N=C2c2ccc(-c3ccc4cn[nH]c4c3)cc2F)C1: 104
- Cc1cc(-c2ccc3c(c2)ncn3C)ccc1C1=NC2(CC2)C(=O)N1CC1CN(C(=O)C2(C)CC2)C1: 105

P = Cc1cc(-c2cccc(S(C)(=O)=O)c2)ccc1C1=NC2(CC2)C(=O)N1CC1CN(C(=O)C2CC2)C1
Q = O=C(C1CC1)N1CC(CN2C(=O)C3(CC3)N=C2c2ccc(-c3ccc4cc(Cl)cnc4c3)cc2)C1
// max by inhibition at 10 µM over [ P , Q ] // respond with label for picked entry
Q

a = O=C(C1CC1)N1CC(CN2C(=O)C3(CC3)N=C2c2ccc(-c3ccc(C4CC4)nc3)cc2)C1
b = Cc1ccc(-c2ccc(-c3ccc(C4=NC5(CC5)C(=O)N4C[C@@H]4CCCN(C(=O)C5CC5)C4)cc3)cc2)cc1
Lab note: record which item had the higher inhibition at 10 µM, a or b . Answer = label.
a

* * *

- assayed-target: hFASN enzyme (full length) (Homo sapiens, UniProt P49327)
- Construct: 10 μL hFASN enzyme (full length, 300 ng, purified in house); made in house
- Sequence (P49327 whole entry): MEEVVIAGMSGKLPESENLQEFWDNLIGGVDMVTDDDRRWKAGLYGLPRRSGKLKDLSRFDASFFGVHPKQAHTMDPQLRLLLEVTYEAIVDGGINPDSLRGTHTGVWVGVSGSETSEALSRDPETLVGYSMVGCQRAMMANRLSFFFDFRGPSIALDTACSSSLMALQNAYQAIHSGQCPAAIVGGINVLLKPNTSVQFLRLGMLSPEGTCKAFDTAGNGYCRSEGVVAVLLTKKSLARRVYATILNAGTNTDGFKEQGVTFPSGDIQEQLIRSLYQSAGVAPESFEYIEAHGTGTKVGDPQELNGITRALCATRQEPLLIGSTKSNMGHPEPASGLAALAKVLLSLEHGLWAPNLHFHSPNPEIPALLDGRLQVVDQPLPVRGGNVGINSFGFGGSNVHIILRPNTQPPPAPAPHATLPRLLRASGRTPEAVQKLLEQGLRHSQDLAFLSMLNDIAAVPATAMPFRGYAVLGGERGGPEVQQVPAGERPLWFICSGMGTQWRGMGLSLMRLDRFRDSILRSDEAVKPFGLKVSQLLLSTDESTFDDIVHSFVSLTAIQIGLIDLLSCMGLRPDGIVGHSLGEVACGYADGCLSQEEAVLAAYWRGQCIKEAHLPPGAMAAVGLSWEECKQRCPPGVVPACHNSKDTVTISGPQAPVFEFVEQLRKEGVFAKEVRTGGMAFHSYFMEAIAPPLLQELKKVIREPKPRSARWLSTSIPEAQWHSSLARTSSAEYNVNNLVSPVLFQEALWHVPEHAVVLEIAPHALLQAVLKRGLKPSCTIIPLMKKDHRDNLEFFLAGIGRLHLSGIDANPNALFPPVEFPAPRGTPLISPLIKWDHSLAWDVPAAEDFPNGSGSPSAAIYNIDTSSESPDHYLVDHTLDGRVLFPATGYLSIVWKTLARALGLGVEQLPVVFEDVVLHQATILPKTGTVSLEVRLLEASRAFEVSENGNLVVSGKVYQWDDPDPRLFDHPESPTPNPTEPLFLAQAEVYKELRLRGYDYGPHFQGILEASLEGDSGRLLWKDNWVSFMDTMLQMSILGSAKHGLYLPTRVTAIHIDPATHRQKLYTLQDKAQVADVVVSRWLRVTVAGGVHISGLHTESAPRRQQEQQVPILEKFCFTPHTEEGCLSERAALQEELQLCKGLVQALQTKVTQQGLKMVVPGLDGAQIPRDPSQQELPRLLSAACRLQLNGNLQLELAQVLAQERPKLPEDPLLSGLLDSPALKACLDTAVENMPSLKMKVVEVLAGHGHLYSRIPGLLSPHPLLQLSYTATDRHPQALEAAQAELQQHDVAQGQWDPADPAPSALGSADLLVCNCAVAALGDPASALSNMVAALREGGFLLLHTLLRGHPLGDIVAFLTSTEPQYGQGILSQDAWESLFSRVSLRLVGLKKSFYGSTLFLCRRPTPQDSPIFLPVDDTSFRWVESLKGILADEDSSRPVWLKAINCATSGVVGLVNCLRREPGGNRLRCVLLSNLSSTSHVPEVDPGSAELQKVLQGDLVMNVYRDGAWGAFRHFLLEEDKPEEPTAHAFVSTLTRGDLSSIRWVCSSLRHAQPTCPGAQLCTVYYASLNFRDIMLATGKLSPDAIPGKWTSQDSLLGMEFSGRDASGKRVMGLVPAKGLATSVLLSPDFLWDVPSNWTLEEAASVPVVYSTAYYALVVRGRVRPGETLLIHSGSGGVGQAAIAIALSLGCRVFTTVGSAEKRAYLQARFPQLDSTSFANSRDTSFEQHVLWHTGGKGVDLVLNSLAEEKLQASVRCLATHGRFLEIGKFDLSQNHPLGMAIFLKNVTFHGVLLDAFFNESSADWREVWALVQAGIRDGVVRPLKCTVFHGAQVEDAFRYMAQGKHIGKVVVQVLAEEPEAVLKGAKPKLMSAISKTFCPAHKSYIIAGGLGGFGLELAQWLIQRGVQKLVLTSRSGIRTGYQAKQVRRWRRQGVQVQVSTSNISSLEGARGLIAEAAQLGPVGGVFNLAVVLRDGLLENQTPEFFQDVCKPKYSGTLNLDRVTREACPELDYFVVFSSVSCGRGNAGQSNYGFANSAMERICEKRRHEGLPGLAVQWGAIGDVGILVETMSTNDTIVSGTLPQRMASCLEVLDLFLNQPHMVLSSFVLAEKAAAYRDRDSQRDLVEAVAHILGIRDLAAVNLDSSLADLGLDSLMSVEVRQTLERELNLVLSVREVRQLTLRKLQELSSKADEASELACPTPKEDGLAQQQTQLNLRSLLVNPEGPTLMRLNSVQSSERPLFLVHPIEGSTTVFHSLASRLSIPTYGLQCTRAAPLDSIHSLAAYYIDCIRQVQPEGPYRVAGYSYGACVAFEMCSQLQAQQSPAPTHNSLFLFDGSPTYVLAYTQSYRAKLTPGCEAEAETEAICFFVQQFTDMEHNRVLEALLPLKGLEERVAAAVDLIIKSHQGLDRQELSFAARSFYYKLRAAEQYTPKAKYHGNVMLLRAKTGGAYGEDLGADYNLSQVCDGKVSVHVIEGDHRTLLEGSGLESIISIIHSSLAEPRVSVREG
- measurement-description: Fatty Acid Synthase (FASN) inhibition scintillation proximity assay
- Assay type: biochemical
- condition-context: read-out: Human FASN % inhibition @ 10 μM, 10 μM test compound
experimental-endpoint: inhibition at 10 µM (%)

- Cc1cccc(-c2ccc(C3=NC4(CC4)C(=O)N3C[C@@H]3CCN(C(=O)C4CC4)C3)cc2)c1: 112
- Cc1cc(-c2ccc3c(c2)OCO3)ccc1C1=NC2(CCCC2)C(=O)N1C[C@@H]1CCN(C(=O)C2CC2)C1: 100

a = O=C(C1CC1)N1CC(CN2C(=O)C3(CC3)N=C2c2ccc(-c3ccc4cccnc4c3)cc2F)C1
b = Cc1cc(-c2ccc3c(cnn3C)c2)ccc1C1=NC2(CC2)C(=O)N1CC1CN(C(=O)c2cccnc2)C1
Return label of the item with the larger inhibition at 10 µM. Candidates: a , b . Answer format: the label of the selected item.
a

* * *

- System: LNCaP-Vancouver prostate cells
- measurement-description: In vitro LNCaP Vancouver prostate cell proliferation assay in lipid reduced medium
- Type: cell-based
- condition-context: read-out: pIC50 LNCaP_Vancouver prostate cell (converted)
experimental-endpoint: IC50 (µM)

Some compounds with known IC50 results, for comparison:
- Cn1ncc2c(-c3ccc(C4=NC5(CC5)C(=O)N4CC4CN(C(=O)C5CC5)C4)cc3)cccc21 [compound 515]: 2.14
- O=C(C1CC1)N1CC[C@@H](CN2C(=O)C3(CCCC3)N=C2c2ccc(-c3cnc4[nH]ccc4c3)cc2F)C1 [compound 881]: 1.32
- COc1cc2cc(-c3ccc(C4=NC5(CC5)C(=O)N4C[C@@H]4CCN(C(=O)C5CC5)C4)cc3)ccc2cn1 [compound 470]: 1.48
- Cn1ncc2cc(-c3ccc(C4=NC5(CC5)C(=O)N4C[C@H]4CCN(C(=O)C5CC5)C4)cc3)ccc21 [compound 410]: 0.977
- O=C(C1CC1)N1CC[C@@H](CN2C(=O)C3(CC3)N=C2c2ccc(-c3ccc4cncnc4c3)cc2F)C1 [compound 258]: 0.0316
- O=C(C1CC1)N1CC[C@@H](CN2C(=O)C3(CC3)N=C2c2ccc(-c3cnc4ccccc4c3)cc2)C1 [compound 474]: 1

a = O=C(C1CC1)N1CC(CN2C(=O)C3(CCOCC3)N=C2c2ccc(-c3ccc4cccnc4c3)cc2)C1 [compound 698]
b = COc1cccc2cc(-c3ccc(C4=NC5(CC5)C(=O)N4CC4CN(C(=O)C5CC5)C4)c(F)c3)ccc12 [compound 635]
c = O=C(N1CC(CN2C(=O)C3(CC3)N=C2c2ccc(-c3ccc4cc(F)ccc4c3)cc2F)C1)C1(O)CC1 [compound 365]
d = Cc1cc2cc(-c3ccc(C4=NC5(CC5)C(=O)N4C[C@@H]4CCN(C(=O)C5CC5)C4)cc3)ccc2[nH]1 [compound 214]
e = O=C(C1CC1)N1CC[C@@H](CN2C(=O)C3(CC3)N=C2c2ccc(-c3cccc(S(=O)(=O)C4CC4)c3)cc2F)C1 [compound 647]
Your job: order these 5 records by IC50, ascending. Returns: the labels listed in the requested order.
c, d, b, a, e

A = O=C(C1CC1)N1CC[C@@H](CN2C(=O)C3(CC3)N=C2c2ccc(-c3n[nH]c4ccccc34)cc2F)C1 [compound 529]
B = Cc1cc(-c2ccc3cn(C)nc3c2)ccc1C1=NC2(CC2)C(=O)N1CC1CN(C(=O)C2(C)CC2)C1 [compound 336]
Of the pair A and B , name the member with the lesser recorded IC50. Record your answer as the label of the chosen record.
B
(B: 0.105 µM, A: 0.724 µM)

* * *

- assayed-target: hFASN enzyme (full length) (Homo sapiens, UniProt P49327)
- Construct: 10 μL hFASN enzyme (full length, 300 ng, purified in house); made in house
- measurement-description: Fatty Acid Synthase (FASN) inhibition scintillation proximity assay
- Assay type: biochemical
- condition-context: read-out: Human FASN pIC50 (converted)
experimental-endpoint: IC50 (nM)

Example compounds with recorded IC50:
- CC(C)C(=O)N1CCC2(CC1)N=C(c1ccc(-c3ccc4[nH]ncc4c3)cc1)N(CC1CN(C(=O)C3CC3)C1)C2=O: 2950
- CC(C)C(=O)N1CCC2(CC1)N=C(c1ccc(-c3ccc4[nH]ccc4c3)cc1)N(CC1CN(C(=O)C3CC3)C1)C2=O: 135
- O=C(C1CC1)N1CC[C@@H](CN2C(=O)C3(CC3)N=C2c2ccc(-c3ccc4cc[nH]c4c3)cc2F)C1: 16.2
- Cc1cc(C2=NC3(CC3)C(=O)N2CC2CN(C(=O)C3CC3)C2)ccc1-c1ccc2sc(C)c(C)c2c1: 1200
- Cc1cc2cc(-c3ccc(C4=NC5(CC5)C(=O)N4C[C@@H]4CCN(C(=O)C5CC5)C4)c(F)c3)ccc2[nH]1: 28.8
- Cc1cc(-c2ccc(-c3cnn(C)c3)cc2)ccc1C1=NC2(CC2)C(=O)N1C[C@@H]1CCN(C(=O)C2(C)CC2)C1: 26.3
- Cc1cc(-c2ccc3c(c2)c(CO)nn3C)ccc1C1=NC2(CC2)C(=O)N1CC1CN(C(=O)C2CC2)C1: 525
- Cn1ncc2cc(-c3ccc(C4=NC5(CCOCC5)C(=O)N4C[C@@H]4CCN(C(=O)[C@H]5CCCO5)C4)cc3)ccc21: 457

a = Cn1ncc2cc(-c3ccc(C4=NC5(CCOCC5)C(=O)N4CC4CN(C(=O)N5CCCC5)C4)cc3)ccc21
b = O=C(C1CC1)N1CC[C@@H](CN2C(=O)C3(CC3)N=C2c2ccc(-c3ccc4c(c3)COCC4)cc2)C1
c = O=C(C1CC1)N1CC[C@@H](CN2C(=O)C3(CCCC3)N=C2c2ccc(-c3cccc4[nH]ncc34)cc2)C1
d = O=C(N1CC[C@@H](CN2C(=O)C3(CC3)N=C2c2ccc(-c3ccc4cc(F)ccc4c3)cc2F)C1)C1(O)CC1
e = O=C([C@H]1CCCO1)N1CC(CN2C(=O)C3(CCOCC3)N=C2c2ccc(-c3ccc4occc4c3)cc2)C1
Please give the order of these compounds when sorted by IC50, largest value leading. Quick reminder: the answer is the labels in the order asked.
a, e, b, c, d

a = Cn1ncc2cc(-c3ccc(C4=NC5(CC5)C(=O)N4CC4CN(C(=O)C5CC5)C4)c(F)c3)ccc21
b = O=C(C1CC1)N1CC[C@@H](CN2C(=O)C3(CCCC3)N=C2c2ccc(-c3cccc4cnccc34)cc2)C1
c = Cc1cccc(-c2ccc(C3=NC4(CC4)C(=O)N3C[C@@H]3CCN(C(=O)C4CC4)C3)cc2)c1
d = N#CC1(C(=O)N2CC[C@@H](CN3C(=O)C4(CCCC4)N=C3c3ccc(-c4ccc5occc5c4)cc3)C2)CC1
Order the records by IC50, with each subsequent value no larger than the one before. Returns: the labels arranged in the requested order.
d, b, c, a
(d: 589 nM, b: 282 nM, c: 81.3 nM, a: 49 nM)

a = O=C(C1CC1)N1CC[C@@H](CN2C(=O)C3(CC3)N=C2c2ccc(-c3ccc4sccc4c3)cn2)C1
b = Cc1cc(-c2ccc3[nH]ncc3c2)ccc1C1=NC2(CC2)C(=O)N1CC1CN(C(=O)C2CC2)C1
Larger number for IC50: a , or b ? Answer by stating the label of the chosen item.
a
(a: 69.2 nM, b: 38 nM)

A = O=C(N1CC[C@@H](CN2C(=O)C3(CC3)N=C2c2ccc(-c3ccc(Cl)cc3F)cc2)C1)C1(O)CC1
B = CN(C)CC(=O)N1CCC2(CC1)N=C(c1ccc(-c3ccc4[nH]ccc4c3)cc1)N(C[C@@H]1CCN(C(=O)C3CC3)C1)C2=O
Between the entries labelled A and B , which has a larger IC50 value on record? Indicate your choice by writing its label.
A
(A: 83.2 nM, B: 39.8 nM)
